# Procedure Summary: qHTS Assay for Rab9 Promoter Activators; further: nearly all actives have a fitted effect of over 60% in size
# Study Conditions: Huh7 Rab9 promoter-luciferase reporter, luminescence, 24 h; series mostly up to 9.22 µM
The whole screen tested about 320,000 compounds, of which about 9,100 (2.8%) were called active. Not shown: some 3% with an inconclusive outcome. The call rests on the fitted dose curve; in most records, active means well fitted activation curve with a large enough effect; inconclusive means small, poorly fitted or top-dose-only effect; inactive means no such curve, though single readings can be large or run the other way. The sample as a whole holds a higher share of actives than the screen did.
The categories you may choose from are TRUE (active), FALSE (inactive)

Illustrative cases are given below, each with its answer.
# Compound, Class Label
data = [
    ("COc1ccccc1CNC(=O)CCCN1C(=O)NC2(CCCC2)C1=O", "FALSE"),
    ("C=CC(=O)OCCOCCOCCOCCOC(=O)C=C", "FALSE"),
    ("O=C(O[C@H]1[C@H](Cc2ccccc2)NS(=O)(=O)[C@H]2C[C@@H]3C=C[C@]12O3)c1ccc([N+](=O)[O-])cc1", "FALSE"),
    ("COc1cccc(C2=CC(=O)C[C@H](c3ccc(OC)c(OC)c3)C2)c1", "FALSE"),
    ("Cc1cc(C)c(C#N)c(SCC(=O)N(CC(C)C)C2CCS(=O)(=O)C2)n1 (stereo unspecified)", "FALSE"),
]

Exam item: Answer briefly: the call reported for Cc1ccccc1-c1cc(C(=O)NCC2CC2)n(CC2CC(c3cccnc3)=NO2)n1 (stereo unspecified) in this assay.
Marked response: FALSE

Exam item: What classification did `COC(=O)c1c(NC(C)=O)sc(C(=O)Nc2ccccc2OC)c1C` end up with in this test?
Marked response: FALSE

Exam item: # outcome recorded in this test, key = `CCCCN(CC(=O)Nc1cccc(S(=O)(=O)N2CCCC2)c1)Cc1nc2ccccc2c(=O)[nH]1`
Marked response: FALSE

All values here come from PubChem BioAssay AID485297.
